We begin with a simple list: items and their reported pIC50.
# experimental-target: Axl (Homo sapiens (Human))
# procedure-details: Phospho-Akt in-cell Western assay (Axl-antibody cross-linking stimulation)
# Type: cell-based
# test-parameters: inhibition of Axl activity, Hela cells, phospho-Akt readout; Table 5, formula (Ia3)
pIC50: −log10 of the molar value.

Kindly note the recorded pIC50 for COc1ccc(Nc2nc(N)n(-c3ccccn3)n2)cc1 , which is < 4.70

Kindly note the recorded pIC50 for COc1cc2ncnc(-n3nc(Nc4ccc(N5Cc6ccccc6C5)c(F)c4)nc3N)c2cc1OC , which is < 4.70

====

# experimental-target: Axl (Homo sapiens (Human), UniProt P30530)
# Sequence (P30530 26-894): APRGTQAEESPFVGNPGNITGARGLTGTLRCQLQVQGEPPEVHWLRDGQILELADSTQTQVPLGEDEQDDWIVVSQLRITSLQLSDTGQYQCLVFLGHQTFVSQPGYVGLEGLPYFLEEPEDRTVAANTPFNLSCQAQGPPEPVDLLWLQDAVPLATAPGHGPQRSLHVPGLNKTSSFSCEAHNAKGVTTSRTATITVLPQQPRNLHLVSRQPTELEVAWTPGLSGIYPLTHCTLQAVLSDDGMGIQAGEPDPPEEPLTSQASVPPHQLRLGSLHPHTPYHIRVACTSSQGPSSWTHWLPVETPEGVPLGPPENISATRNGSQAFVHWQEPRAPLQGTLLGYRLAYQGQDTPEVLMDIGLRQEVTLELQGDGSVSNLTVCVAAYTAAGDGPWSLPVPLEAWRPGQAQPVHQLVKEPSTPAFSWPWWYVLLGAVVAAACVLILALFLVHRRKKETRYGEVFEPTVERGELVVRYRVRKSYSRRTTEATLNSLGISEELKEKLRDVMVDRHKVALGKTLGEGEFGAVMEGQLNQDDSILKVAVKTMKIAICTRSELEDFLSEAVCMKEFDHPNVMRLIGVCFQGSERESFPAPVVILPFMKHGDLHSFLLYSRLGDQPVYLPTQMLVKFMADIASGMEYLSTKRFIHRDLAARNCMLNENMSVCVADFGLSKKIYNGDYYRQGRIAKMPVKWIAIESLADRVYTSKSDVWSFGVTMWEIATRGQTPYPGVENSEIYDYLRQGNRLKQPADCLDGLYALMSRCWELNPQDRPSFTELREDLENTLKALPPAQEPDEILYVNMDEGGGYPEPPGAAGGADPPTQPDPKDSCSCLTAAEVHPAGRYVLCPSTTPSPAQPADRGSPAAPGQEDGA
# procedure-details: Phospho-Akt in-cell Western assay (Axl-antibody cross-linking stimulation)
# Format: cell-based
# test-parameters: inhibition of Axl activity, phospho-Akt in-cell Western assay
measured-attribute: IC50

Use the examples below as a reference point.
- compound: "Cc1csc2c(-n3nc(Nc4ccc(N5CCN(C6CC7CCC6C7)[C@@H](C)C5)c(F)c4)nc3N)ncnc12 (stereo partly drawn) [Compound 249]"
  IC50: "< 1000 nM"
- compound: "Nc1nc(Nc2ccc(N3CCN(C4CCCCC4)CC3)c(F)c2)nn1-c1nccc2ccccc12 [Compound 87]"
  IC50: "< 1000 nM"
- compound: "COc1cc2ncnc(-n3nc(Nc4ccc(N5CCN(C)CC5)c(C(N)=O)c4)nc3N)c2cc1OC [Compound 121]"
  IC50: "1000 to 10000 nM"
- compound: "COc1cc2c(-n3nc(Nc4ccc(N5CCN(C6CC7CCC6C7)CC5)c(F)c4)nc3N)ncnc2cc1O (stereo not drawn) [Compound 106]"
  IC50: "< 1000 nM"

// moving on: another record for IC50
Kindly note the recorded IC50 for Nc1nc(Nc2ccc(N3CCN(C4CC5CCC4C5)CC3)cc2)nn1-c1ncnc2sc3c(c12)CCC3 (stereo not drawn) [Compound 132] , which is 1000 to 10000 nM

====

# experimental-target: Axl (Homo sapiens (Human), UniProt P30530)
# procedure-details: Phospho-Akt in-cell Western assay (Axl-antibody cross-linking stimulation)
# Format: cell-based
# test-parameters: inhibition of Axl activity, phospho-Akt in-cell Western assay
measured-attribute: IC50

- molecule: "Nc1nc(Nc2ccc(N3CCN(C4CC5CCC4C5)CC3)c(F)c2)nn1-c1ncnc2ccsc12 (stereo not shown) [Compound 195]"
  IC50: "< 1000 nM"

The molecule Nc1nc(Nc2ccc(N3CCN(C4CC5CCC4C5)CC3)c(F)c2)nn1-c1ncnc2sccc12 (stereo not shown) [Compound 196] , tested on Axl (Homo sapiens (Human), UniProt P30530), showed IC50 of < 1000 nM

The molecule Nc1nc(Nc2ccc(N3CCN(C4CCCCC4)CC3)cc2)nn1-c1ncc2c(n1)-c1ccccc1CC2 [Compound 93] , tested on Axl (Homo sapiens (Human), UniProt P30530), showed IC50 of < 1000 nM

The molecule Cc1csc2c(-n3nc(Nc4ccc(N5CCN(C6CC7CCC6C7)CC5)c(F)c4)nc3N)nc(Cl)nc12 (stereo not shown) [Compound 140] , tested on Axl (Homo sapiens (Human), UniProt P30530), showed IC50 of 1000 to 10000 nM

====

# experimental-target: Axl (Homo sapiens (Human))
# procedure-details: Phospho-Akt in-cell Western assay (Axl-antibody cross-linking stimulation)
# Type: cell-based
# test-parameters: inhibition of Axl activity, Hela cells, phospho-Akt readout; Table 1, formula (Ia1)
pIC50: −log10 of the molar value.
We begin with a simple list: items and their reported pIC50.

- molecule: "Nc1nc(Nc2ccc(OCCN3CCCC3)cc2)nn1-c1nc(N2CCOCC2)nc2ccccc12"
  pIC50: "5.00 to 6.00"
- molecule: "Cn1c(-n2nc(Nc3ccc(OCCN4CCCC4)c(Cl)c3)nc2N)nc2ccccc21"
  pIC50: "> 6.00"
- molecule: "CC1CCC(C)N1CCOc1ccc(Nc2nc(N)n(-c3cnc4ccccc4n3)n2)cc1 (centres unmarked)"
  pIC50: "> 6.00"
- molecule: "Nc1nc(Nc2ccc(OCCN3CCCC3)cc2)nn1-c1cnccn1"
  pIC50: "5.00 to 6.00"

Kindly note the recorded pIC50 for Nc1nc(Nc2ccc(OCCN3CCCC3)cc2)nn1-c1ccc(Br)cn1 , which is < 4.70

====

We begin with a simple list: items and their reported IC50.
# experimental-target: UniProt:P30530
# procedure-details: Phospho-Akt in-cell Western assay (Axl-antibody cross-linking stimulation)
# Type: cell-based
# test-parameters: inhibition of Axl activity, Hela cells, phospho-Akt readout; Table 5, formula (Ia3)

Kindly note the recorded IC50 for COc1cc2ncnc(-n3nc(Nc4ccc(CN5CCN(C)CC5)cc4)nc3N)c2cc1OC , which is < 1 µM

Kindly note the recorded IC50 for COc1cc2c(-n3nc(Nc4ccc(C5CCN(C)CC5)cc4)nc3N)ncnc2cc1O , which is < 1 µM

====

# experimental-target: Axl (Homo sapiens (Human), UniProt P30530)
# procedure-details: Phospho-Akt in-cell Western assay (Axl-antibody cross-linking stimulation)
# Assay type: cell-based
# test-parameters: inhibition of Axl activity, Hela cells, phospho-Akt readout; Table 1, formula (Ia1)
pIC50: −log10 of the molar value.
measured-attribute: pIC50

- molecule: "Nc1nc(Nc2ccc(OCCN3CCCC3)c(Cl)c2)nn1-c1nccc2ccccc12"
  pIC50: "> 6.00"
- molecule: "Nc1nc(Nc2ccc(OCCN3CCCC3)c(Cl)c2)nn1-c1ccccn1"
  pIC50: "> 6.00"
- molecule: "Nc1nc(Nc2ccc(OCCN3CCCC3)cc2)nn1-c1ccc(S(N)(=O)=O)cc1"
  pIC50: "< 4.70"
- molecule: "CN(C)c1cccc(-n2nc(Nc3ccc(OCCN4CCCCC4)cc3)nc2N)n1"
  pIC50: "4.70 to 5.00"
- molecule: "Nc1nc(Nc2ccc(OCCN3CCCC3)cc2)nn1-c1ncnc2sc3c(c12)CCC3"
  pIC50: "> 6.00"

Kindly note the recorded pIC50 for COc1cc2ccnc(-n3nc(Nc4ccc(OCCN5CCCC5)cc4)nc3N)c2cc1OC , which is > 6.00

Kindly note the recorded pIC50 for Nc1nc(Nc2ccc(OCCN3CCCC3)cc2)nn1-c1ncccc1C(F)(F)F , which is 5.00 to 6.00

Kindly note the recorded pIC50 for COc1cccc(-n2nc(Nc3ccc(OCCN4CCCC4)cc3)nc2N)n1 , which is 5.00 to 6.00

Kindly note the recorded pIC50 for Nc1nc(Nc2ccc(OCCN3CCCC3)cc2)nn1-c1nccc2[nH]c(=O)ccc12 , which is > 6.00

Kindly note the recorded pIC50 for CNc1cccc(-n2nc(Nc3ccc(OCCN4CCCCC4)cc3)nc2N)n1 , which is 5.00 to 6.00

Kindly note the recorded pIC50 for Nc1nc(Nc2ccc(OCCN3CCCC3)cc2)nn1-c1cnc2ccccc2n1 , which is > 6.00

Kindly note the recorded pIC50 for Nc1nc(Nc2ccc(OCCN3CCCCC3)cc2)nn1-c1ccnc(Cl)c1 , which is < 4.70

Kindly note the recorded pIC50 for Cc1cc(O)nc(-n2nc(Nc3ccc(OCCN4CCCC4)cc3)nc2N)n1 , which is < 4.70

Kindly note the recorded pIC50 for CC1CCCN1CCOc1ccc(Nc2nc(N)n(-c3nc4ccccc4s3)n2)cc1 (stereo not drawn) , which is < 4.70

====

We begin with a simple list: items and their reported IC50.
# experimental-target: Axl (Homo sapiens (Human), UniProt P30530)
# procedure-details: Phospho-Akt in-cell Western assay (Axl-antibody cross-linking stimulation)
# Type: cell-based
# test-parameters: inhibition of Axl activity, Hela cells, phospho-Akt readout; Table 1, formula (Ia1)

Use the examples below as a reference point.
- compound: "COc1cc2ncnc(-n3nc(Nc4ccc(OCCN5CCCC5)cc4)nc3N)c2cc1OC"
  experimental-target: "Axl (Homo sapiens (Human), UniProt P30530)"
  IC50: "< 1 µM"
- compound: "Nc1nc(Nc2ccc(OCCN3CCCCC3)cc2)nn1-c1cccc(N2CCOCC2)n1"
  experimental-target: "Axl (Homo sapiens (Human), UniProt P30530)"
  IC50: "10 to 20 µM"
- compound: "Nc1nc(Nc2ccc(OCCN3CCCC3)c(F)c2)nn1-c1nccc2ccccc12"
  experimental-target: "Axl (Homo sapiens (Human), UniProt P30530)"
  IC50: "< 1 µM"
- compound: "COC(=O)C1CCCN1CCOc1ccc(Nc2nc(N)n(-c3cnc4ccccc4n3)n2)cc1 (stereo not drawn)"
  experimental-target: "Axl (Homo sapiens (Human), UniProt P30530)"
  IC50: "1 to 10 µM"
- compound: "Nc1nc(Nc2ccc(OCCN3CCCC3)cc2)nn1-c1ncnc2ccsc12"
  experimental-target: "Axl (Homo sapiens (Human), UniProt P30530)"
  IC50: "< 1 µM"
- compound: "CC1CCCN1CCOc1ccc(Nc2nc(N)n(-c3nc4ccccc4[nH]3)n2)cc1 (stereo not drawn)"
  experimental-target: "Axl (Homo sapiens (Human), UniProt P30530)"
  IC50: "> 20 µM"

Kindly note the recorded IC50 for Nc1nc(Nc2ccc(OCCN3CCCC3)cc2)nn1-c1ncccc1Cl , which is > 20 µM

Kindly note the recorded IC50 for Nc1nc(Nc2ccc(OCCN3CCCC3)cc2)nn1-c1nncc2ccccc12 , which is < 1 µM

Kindly note the recorded IC50 for Nc1nc(Nc2ccc(OCCN3CCCCC3)cc2)nn1-c1ccccc1 , which is > 20 µM

Values from patent US10166216B2
